Consider the following molecules; for each one, report its TGI.
tested on: OVCAR-8 ovarian; assay: NCI tumour cell line growth inhibition, 48 h
Answers are plain numbers, in µM.

Answered cases to consult:
MOLECULE: Cc1cc(C)nc(NS(=O)(=O)c2ccc(NC(=O)c3ccc(Cl)c4c(Nc5ccc(S(=O)(=O)Nc6cc(C)on6)cc5)c5ccccc5nc34)cc2)n1
TGI / µM: 30.9

MOLECULE: CCCCn1c(C)c(C(=O)CC)c(C(=O)NCCN2CCN(c3ccccc3Cl)CC2)c1C
TGI / µM: 35.8

MOLECULE: c1ccc(CSc2nnc3c4c5c(sc4nc(-c4cccnc4)n23)CCCCCC5)cc1
TGI / µM: 13.2

Consider the record given below.
Q: GET /values?readout=TGI&item= COC(=O)C([C@H]1CC[C@H](OCc2ccccc2)[C@@]1(O)COCc1ccccc1)C(C)(O)CCc1ccccc1 (some centres undefined)
Ans: 41.5
